Values from ChEMBL document CHEMBL1201862

test system: NCI-H522; assay: NCI tumour cell line growth inhibition, 48 h
Activity calls are given as the source filed them. Rule as the data show it: active = GI50 up to about 1.1 µM and inactive = higher.
Would you kindly list GI50 for each of these molecules?

Solved cases below.
COc1cc2ccc3c4cc(OC)c(OC)cc4c[n+](C)c3c2cc1O; 8.97 µM (inactive)
NC(=S)NNC(=O)/C(=C/c1ccc(/C=C(\NC(=O)c2ccccc2)C(=O)NNC(N)=S)cc1)NC(=O)c1ccccc1; 25.4 µM (inactive)
c1cnc2c(c1)ccc1cccnc12; 5.86 µM (inactive)
COc1cc(/C=C\c2nnc(/C=C\c3ccc(O)c(OC)c3)s2)ccc1O; 1.67 µM (inactive)
CC(=O)[C@@H](C)C(=O)N1C(=O)OC[C@@]12[C@@H]1CC[C@@H](C1)C2(C)C; > 100 µM (inactive)
O=C1c2ccccc2C(=O)N1NC1=NCCN1; > 100 µM (inactive)
Oc1ccc(Cc2cc(Cc3ccc(O)cc3)cc(Cc3ccc(O)cc3)c2)cc1; > 50 µM (inactive)
c1nc(NCCc2c[nH]cn2)c2nc[nH]c2n1; > 100 µM (inactive)

Turning now to a further record.
Form field: reported GI50 of Cc1c(O)c(OC2OC(CO)C(O)C(O)C2O)cc2c1CC[C@@H]1C2(C)C(=O)C[C@]2(C)[C@@H]([C@@](C)(O)C(=O)CCC(C)(C)O)[C@H](O)C[C@@]12C (some centres undefined)
> 100 µM (inactive)

###

tested on: MOLT-4; assay: NCI tumour cell line growth inhibition, 48 h
Activity calls are given as the source filed them. Rule as the data show it: active = GI50 up to about 1.1 µM and inactive = higher.
Measured metric: GI50

CCOC(=O)C(Cc1ccc(N=NN(C)C)cc1)NC(=O)CC1c2ccccc2-c2ccccc21 (stereo not given); 38.3 µM (inactive)
C=C(C)C1Cc2cc(C(C)=O)ccc2O1 (stereo not given); > 100 µM (inactive)
COc1ccc(/C(=N\NC(=O)C(=O)NN)C(c2ccc(OC)cc2)C2(O)C(=O)Nc3ccccc32)cc1 (stereo not given); 6.44 µM (inactive)
O=C1Cc2c([nH]c3ccc(Br)cc23)-c2cc(O)c(O)cc2N1; 71.8 µM (inactive)
CCCCCCCC(CC(=O)NC(CO)C(=O)NC(CO)CC(C)C)OC(=O)CC(CCCCCCC)OC(=O)CC(CCCCCCC)OC1OC(C)C(O)C(OC2OC(C)C(O)C(O)C2O)C1O (stereo not given); 3.06 µM (inactive)
O=[N+]([O-])c1ccc(/C=N/Nc2nc3ccccc3[nH]2)o1; 11.2 µM (inactive)

For the 3 molecules below, give their GI50 values.
1. CC1OC1P(=O)(O)O (stereo not given)
2. COc1ccc(Cc2nn(C3OC(COC(C)=O)C(OC(C)=O)C(OC(C)=O)C3OC(C)=O)c(=S)n(-c3ccc(OC)cc3)c2=O)cc1 (stereo not given)
3. CC(=O)OCC1CCC(=C2C(=O)OC(C)(C)OC2=O)N1 (stereo not given)

> 100 µM (inactive)
> 100 µM (inactive)
> 100 µM (inactive)

###

tested on: KM12; test: NCI tumour cell line growth inhibition, 48 h
Activity calls are given as the source filed them. Rule as the data show it: active = GI50 up to about 1.1 µM and inactive = higher.
Would you kindly list GI50 for each of these molecules?

Solved cases below.
CC1(c2ccccc2)CCN(C2CC2)CO1 (stereo not drawn); 14.9 µM (inactive)
N#Cc1c(-c2ccc([N+](=O)[O-])cc2)cc(-c2ccc(Nc3ccnc4cc(Cl)ccc34)cc2)nc1N; 2.38 µM (inactive)
COC(=O)c1nn2ccc3ccccc3c2c1C(=O)OC; 58.7 µM (inactive)
COc1ccc(C[C@]23CCC(=O)N2CCc2cc(OC)c(O)cc23)cc1O; > 100 µM (inactive)
Cc1ccnc(NS(=O)(=O)c2ccc(NC3=CC(=O)C(=O)c4ccccc43)cc2)n1; > 100 µM (inactive)
COC(=O)CCC1=C(CC(=O)OC)C(C)(OC)N/C1=N/C(=O)OCc1ccccc1 (stereo not drawn); > 100 µM (inactive)
COc1cc2c(cc1C[N+](C)(C)CSc1ccccc1)-c1ccccc1CC2; 2.2 µM (inactive)

Turning now to a further record.
Form field: reported GI50 of COC(=O)C1OC(O[C@H]2CC[C@]3(C)[C@H]4CC=C5[C@@H]6CC(C)(C)CC[C@]6(C(=O)OC6OCC(O)C(O)C6OC6OC(C)C(OC7OCC(OC8OCC(O)C(O)C8O)C(O)C7O)C(O)C6O)[C@H](O)C[C@@]5(C)[C@]4(C)CC[C@H]3C2(C)C)C(O)C(O)C1O (stereo partly drawn)
3.72 µM (inactive)

###

test system: SN12C; experiment: NCI tumour cell line growth inhibition, 48 h
Activity calls are given as the source filed them. No stated cut-off is given here; in the data, active = GI50 up to about 1.1 µM and inactive = higher.
In this exercise, the only acceptable responses are 1 (yes) (active), 0 (no) (inactive)

Look over these answered cases.
CC(C(O)c1ccccc1)N(C)/N=N/c1nc2c([nH]1)c(=O)n(C)c(=O)n2C (stereo not drawn); 0 (no)
C/C(=N\O)c1ccc(OCc2cc(C(F)(F)F)cc(C(F)(F)F)c2)cc1; 0 (no)
c1nc(NCCc2c[nH]cn2)c2nc[nH]c2n1; 0 (no)
CCN(CC)CCNC(=O)c1ccccc1NC(=O)C(=O)Nc1ccccc1C(=O)NCCN(CC)CC; 0 (no)
CC(=O)Nc1ccc(/N=C2\C(c3ccccc3)=C(SC3=C(c4ccccc4)/C(=N\c4ccc(NC(C)=O)cc4)c4ccccc43)c3ccccc32)cc1; 0 (no)
CCCCCCCCCCCCCCCc1nnc(SCC(=O)O)[nH]1; 0 (no)
CC1=[N+](C)CCCN1C; 0 (no)
CCN(CC)CCC(=O)c1ccc(Oc2ccccc2)cc1; 0 (no)

Now look at this entry.
Called result for O=[N+]([O-])c1ccc(OCCNc2cccc3ccccc23)cc1
0 (no)

###

test system: CAKI-1; test: NCI tumour cell line growth inhibition, 48 h
The source made the active and inactive calls. No stated cut-off is given here; in the data, active = GI50 up to about 1.1 µM and inactive = higher.
Would you kindly list GI50 for each of these compounds?

Cc1cc2c(cc1C(=O)c1ccc(N)cc1)OCO2; 24.5 µM (inactive)

For the 3 compounds below, give their GI50 values.
1. COC(=O)C1(C(=O)OC)N=C(C)OC1C(C)C (stereo not drawn)
2. O=C1C(Cl)=C(Sc2nnc3c4ccccc4c4ccccc4c3n2)C(=O)c2ccccc21
3. O=C(CP(c1ccccc1)c1ccccc1)c1cccc(C(=O)CP(c2ccccc2)c2ccccc2)c1

> 100 µM (inactive)
17 µM (inactive)
86.3 µM (inactive)

For the 2 compounds below, give their GI50 values.
1. O=C1NC(=S)NC(=O)C1C(c1ccc([N+](=O)[O-])cc1)C1C(=O)NC(=S)NC1=O.c1ccncc1
2. CC1=COC(=O)c2ccccc2N1

1. > 100 µM (inactive)
2. > 100 µM (inactive)

For the 2 compounds below, give their GI50 values.
1. CCSC(SCC)=C1C(=O)N(c2ccccc2)N=C1C
2. COC(=O)/C(=N\NC(N)=O)C(C(=O)C(=O)Nc1ccccc1C(=O)OC)c1nc2ccc(C(=O)c3ccccc3)cc2nc1O (stereo not drawn)

1: 3.8 µM (inactive); 2: > 100 µM (inactive)

For the 4 compounds below, give their GI50 values.
1. NC(=O)c1c[se]c(C2OC(COP(=O)(O)CP(=O)(O)OCC3OC(n4cnc5c(N)ncnc54)C(O)C3O)C(O)C2O)n1 (stereo not drawn)
2. O=C1C(Br)=CC2([N+](=O)[O-])CCNC3=C(C4=NCCc5c[nH]c(c54)C3=O)C2=C1Br (stereo not drawn)
3. Cc1ccc([N+](=O)[O-])c2c(NCCNC(=O)c3cc(C(=O)NCCNc4ccnc5c(C)ccc([N+](=O)[O-])c45)n(C)n3)ccnc12
4. CCOC(=O)C1C(C)C2(C#N)C(=N)OC1(C)C2(C#N)C#N (stereo not drawn)

1: 43.3 µM (inactive); 2: 1.49 µM (inactive); 3: 98.6 µM (inactive); 4: 53.6 µM (inactive)

###

system: SF-268; experiment: NCI tumour cell line growth inhibition, 48 h
Active and inactive are the calls of the source. No stated cut-off is given here; in the data, active = GI50 up to about 1.1 µM and inactive = higher.
In this exercise, the only acceptable responses are class 1 for active, class 0 for inactive

CCOC(=O)c1nc2cc(C(F)(F)F)ccc2nc1Oc1ccc(C(=O)OC)cc1; class 0
CC1=C(C)C(=O)C2=C(OCCCO2)C1=O; class 0
COc1ccc(Oc2nc3cc(C(F)(F)F)ccc3nc2C(C)C)cc1; class 0
CC1=C(C(=O)Nc2cc(F)c(F)cc2F)C(c2cccc([N+](=O)[O-])c2)C(C(=O)Nc2ccccc2C(F)(F)F)=C(C)N1 (stereo not given); class 0
COc1cc2c(cc1OCCN1C(=O)c3cccc4cccc(c34)C1=O)N=C[C@@H]1CCCN1C2=O; class 0

Called result for O=C1C(Cl)=C(Sc2nnc3c4ccccc4c4ccccc4c3n2)C(=O)c2ccccc21
class 0

Called result for CCOC(=O)C(Cc1ccc(N=NN(C)C)cc1)NC(=O)CC1c2ccccc2-c2ccccc21 (stereo not given)
class 0

Called result for c1ccc2c(c1)N=c1ccccc1=P21c2ccccc2Nc2ccccc21
class 1

Called result for CS(=O)(=O)Nc1ccc(Nc2c3ccccc3nc3ccccc23)cc1
class 0

Called result for Cc1cc(C=O)c2c(=O)c3c(O)ccc(/C=C/C(C)C)c3oc2c1
class 0
